Source of measurements: patent US12396961B2

- protocol_summary: Particle size and polydispersity index (Zetasizer Nano ZS)
- Format: physicochemical
- recorded_conditions: Table 20-1
reported_property: PDI
Numbers only.

Consider the worked cases shown below.
| substance_smiles | PDI |
| --- | --- |
| CCCCCCCCCCCCN(CCO)CCN(CCCCCCCCCCCC)CCCCCC(=O)OCCCCC | 0.130 |
| CCCCCCCCCCCCN(CCCCCCCCCCCC)CCN(CCO)CCCCCCCC(=O)OC(CCCCCCCC)CCCCCCCC | 0.130 |
| CCCCCCCOC(=O)CCCCCN(CCO)CCN(CCCCCC(=O)OCCCCCCC)CCCCCC(=O)OCCCCCCC | 0.210 |
| CCCCCCCCCCCCN(CCCCCCCCCCCC)CCN(CCO)CCCCCCCCC | 0.092 |
| CCCCCCCCCCCCN(CCO)CCN(CCCCCCCCC)CCCCCCCCC | 0.150 |

Would you be so kind as to report PDI for each listed record?
1. CCCCC/C=C\C/C=C\CCCCCCCCN(CCCCCCCC/C=C\C/C=C\CCCCC)CCN(CCO)CCCCCCCCCCCC
2. CCCCC/C=C\CCCCCN(CCO)CCN(CCCCCCCCCCCC)CCCCCCCCCCCC
3. CCCCCCCCCN(CCCCCCCCC)CCN(CCO)CCCCCC(=O)OCCCCC

stdout:
1. 0.057
2. 0.080
3. 0.220

stdin: Endpoint output: PDI of CCCCCCCCCCCCCCN(CCO)CCN(CCCCCCCCCCCC)CCCCCCCCCCCC . Value?
stdout: 0.038
